Record set of Kd for target or system STK10(DKIN) (Homo sapiens).

CC(C)(C)c1cc(NC(=O)Nc2ccc(NC(=O)c3nccnc3N)cc2)no1: 100 to 1000 nM
CC(C)(C)c1cc(NC(=O)Nc2ccc(Nc3nc(Cl)nc4[nH]cnc34)cc2)no1 [drawing 697]: 100 to 1000 nM
COc1cc2ncnc(Nc3ccc(NC(=O)Nc4cc(C(C)(C)C)on4)cc3)c2cc1OC [drawing 698]: < 100 nM
CC(C)(C)c1cc(NC(=O)Nc2ccc(Nc3ncnc4[nH]cnc34)cc2)no1 [drawing 701]: < 100 nM
CC(C)(C)c1cc(NC(=O)Nc2ccc(N3C(=O)c4ccccc4C3=O)cc2)no1: < 100 nM

Q: Form field - read-out: Kd; system: STK10(DKIN) (Homo sapiens); submitted item: CC(C)(C)c1cc(NC(=O)Nc2ccc(Nc3nc(N)nc4[nH]cnc34)cc2)no1 [drawing 703]
Sequence (O94804 36-294 limits assumed): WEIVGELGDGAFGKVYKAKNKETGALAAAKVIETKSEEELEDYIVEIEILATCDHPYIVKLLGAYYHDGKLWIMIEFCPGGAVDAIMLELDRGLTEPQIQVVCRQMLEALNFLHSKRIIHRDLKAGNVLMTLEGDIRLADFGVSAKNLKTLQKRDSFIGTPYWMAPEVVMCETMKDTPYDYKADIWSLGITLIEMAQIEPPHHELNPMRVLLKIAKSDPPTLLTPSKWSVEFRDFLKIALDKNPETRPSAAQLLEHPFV
Ans: 100 to 1000 nM

Q: Look up Kd with STK10(DKIN) (Homo sapiens) for this compound: COc1cc2nc(Cl)nc(Nc3ccc(NC(=O)Nc4cc(C(C)(C)C)on4)cc3)c2cc1OC [drawing 699]
Ans: < 100 nM

Q: Form entry - test system: STK10(DKIN) (Homo sapiens); read-out: Kd; compound: CC(C)(C)c1cc(NC(=O)Nc2ccc(NC(=O)c3ncccc3O)cc2)no1 [drawing 696]
Ans: 100 to 1000 nM

Q: Test system STK10(DKIN) (Homo sapiens); read-out Kd; what value for COc1cc(OC)nc(Oc2cccc(C(=O)Nc3ccc(NC(=O)Nc4cc(C(C)(C)C)on4)cc3)c2)n1 [drawing 700] ?
Ans: 1000 to 10000 nM

====

pKd values, listed per item
EXPERIMENTAL_TARGET: p38-alpha(FKIN) (Homo sapiens)
Sequence (Q16539 whole entry): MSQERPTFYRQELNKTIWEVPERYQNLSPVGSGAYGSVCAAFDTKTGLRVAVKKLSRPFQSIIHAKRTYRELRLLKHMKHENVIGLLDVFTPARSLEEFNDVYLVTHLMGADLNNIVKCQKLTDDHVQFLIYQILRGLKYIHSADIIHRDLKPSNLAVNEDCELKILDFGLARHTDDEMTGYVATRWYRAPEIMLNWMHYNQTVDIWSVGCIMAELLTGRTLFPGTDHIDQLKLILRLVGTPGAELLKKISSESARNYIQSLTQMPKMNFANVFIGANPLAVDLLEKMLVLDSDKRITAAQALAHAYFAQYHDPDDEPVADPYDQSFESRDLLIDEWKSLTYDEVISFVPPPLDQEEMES
pKd: −log10 of the molar value.

NC(=O)c1cc(Oc2ccc(Nc3c(Nc4ccc(Cl)c(C(F)(F)F)c4)c(=O)c3=O)cc2)ccn1: 6.00 to 7.00
CC(C)(C)c1cc(NC(=O)Nc2ccc(NC(=O)c3cnc4ccccc4c3)cc2)no1 [drawing 680]: 5.00 to 6.00

Attention now shifts to the item below.
Q: Under p38-alpha(FKIN) (Homo sapiens): pKd value of COc1ccc(NC(=O)Nc2cc(C(C)(C)C)on2)cc1 ?
Ans: 5.00 to 6.00

====

EXPERIMENTAL_TARGET: MKNK2 (DKIN) (Homo sapiens, UniProt Q9HBH9)
Sequence (Q9HBH9 84-388 limits assumed): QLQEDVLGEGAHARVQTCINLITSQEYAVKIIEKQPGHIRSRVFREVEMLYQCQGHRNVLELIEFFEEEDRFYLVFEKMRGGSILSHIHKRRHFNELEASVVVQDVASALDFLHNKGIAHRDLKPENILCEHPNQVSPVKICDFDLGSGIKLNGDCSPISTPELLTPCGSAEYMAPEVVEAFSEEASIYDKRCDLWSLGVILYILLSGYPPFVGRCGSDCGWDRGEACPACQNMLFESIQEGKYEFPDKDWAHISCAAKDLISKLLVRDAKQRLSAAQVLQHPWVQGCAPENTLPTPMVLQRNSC
PROPERTY: Kd

Use these answered entries as a reference point.
COc1cc2ncnc(Nc3ccc(NC(=O)Nc4cc(C(C)(C)C)on4)cc3)c2cc1OC [drawing 692]: < 100 nM
CC(C)(C)c1cc(NC(=O)Nc2ccc(Nc3ncnc4[nH]cnc34)cc2)no1 [drawing 686]: < 100 nM
CC(C)(C)c1cc(NC(=O)Nc2ccc(Nc3nc(Cl)nc4[nH]cnc34)cc2)no1 [drawing 682]: 1000 to 10000 nM
CC(C)(C)c1cc(NC(=O)Nc2ccc(NC(=O)c3cnc4ccccc4c3)cc2)no1 [drawing 689]: 1000 to 10000 nM
CC(C)(C)c1cc(NC(=O)Nc2ccc(NC(=O)c3cscn3)cc2)no1: 100 to 1000 nM

Q: Request: Kd, test system MKNK2 (DKIN) (Homo sapiens, UniProt Q9HBH9), entry CC(C)(C)c1cc(NC(=O)Nc2ccc(Nc3nc(N)nc4[nH]cnc34)cc2)no1 [drawing 691]
Ans: < 100 nM

Q: // lookup Kd | system=MKNK2 (DKIN) (Homo sapiens, UniProt Q9HBH9) | key= COc1cc2nc(Cl)nc(Nc3ccc(NC(=O)Nc4cc(C(C)(C)C)on4)cc3)c2cc1OC [drawing 684]
Ans: 1000 to 10000 nM

Q: For the record CC(C)(C)c1cc(NC(=O)Nc2ccc(NC(=O)c3ncccc3O)cc2)no1 [drawing 687] , what value of Kd is listed for MKNK2 (DKIN) (Homo sapiens, UniProt Q9HBH9)?
Ans: < 100 nM

Q: For MKNK2 (DKIN) (Homo sapiens, UniProt Q9HBH9), provide Kd of CC(C)(C)c1cc(NC(=O)Oc2ccc(NC(=O)c3nccnc3N)cc2)no1 please.
Ans: 100 to 1000 nM

Q: Give the reported Kd for Cc1cnc(C(=O)Nc2ccc(NC(=O)Nc3cc(C(C)(C)C)on3)cc2)c(C(=O)O)n1 (system: MKNK2 (DKIN) (Homo sapiens, UniProt Q9HBH9)).
Ans: 1000 to 10000 nM

Q: Recorded Kd for COc1cc(OC)nc(Oc2cccc(C(=O)Nc3ccc(NC(=O)Nc4cc(C(C)(C)C)on4)cc3)c2)n1 [drawing 693] with MKNK2 (DKIN) (Homo sapiens, UniProt Q9HBH9), please?
Ans: 100 to 1000 nM
